Recorded MIC Staphylococcus haemolyticus (GC 4546) for the following compounds
# System: Staphylococcus sp.
# run_description: in vitro antibacterial evaluation, MIC by broth dilution
# Type: cell-based
# assay_context: broth dilution, 18 hours at 35° C.; strain GC 4546

// query Query: MIC Staphylococcus haemolyticus (GC 4546); subject: CC(c1ccccc1)C1NC(=O)CNC(=O)C(CO)NC(=O)C(C(O)C2CNC(=N)N2C2OC(CO)C(O)C(O)C2O)NC(=O)C(C(O)C2CNC(=N)N2)NC(=O)C(Cc2ccc(OC3OC(CO)C(OC4OC(CO)C(O)C(O)C4O)C(O)C3O)c(N)c2)NC1=O (centres unmarked)
// result >64 µg/mL

With those in mind, consider the next compound.
// query Query: MIC Staphylococcus haemolyticus (GC 4546); subject: CC(C)CC(=O)OC1C(OC2C(CO)OC(Oc3ccc(CC4NC(=O)C(C(C)c5ccccc5)NC(=O)CNC(=O)C(CO)NC(=O)C(CC5CNC(=N)N5C5OC(CO)C(O)C(O)C5O)NC(=O)C(CC5CNC(=N)N5)NC4=O)cc3)C(O)C2O)OC(CO)C(O)C1O (centres unmarked) [Example 277b]
// result >64 µg/mL

---

# System: Enterococcus sp.
# run_description: in vitro antibacterial evaluation, MIC by broth dilution
# Format: cell-based
# assay_context: broth dilution, inoculum 5×10^5 CFU/mL, 18 hours at 35° C.; strain GC 4553
Recorded MIC Enterococcus faecalis (GC 4553) for the following compounds
Field: numeric (µg/mL). Do not append units.

// query Query: MIC Enterococcus faecalis (GC 4553); subject: CCOc1cc(C2OCC3OC(OC4C(CO)OC(Oc5ccc(CC6NC(=O)C(C(C)c7ccccc7)NC(=O)CNC(=O)C(CO)NC(=O)C(C(O)C7CNC(=N)N7C7OC(CO)C(O)C(O)C7O)NC(=O)C(C(O)C7CNC(=N)N7)NC6=O)cc5)C(O)C4O)C(O)C(O)C3O2)ccc1[N+](=O)[O-] (centres unmarked)
// result 32

New cases:
// query Query: MIC Enterococcus faecalis (GC 4553); subject: CC(c1ccccc1)C1NC(=O)CNC(=O)C(CO)NC(=O)C(C(O)C2CNC(=N)N2C2OC(CO)C(O)C(O)C2O)NC(=O)C(C(O)C2CNC(=N)N2)NC(=O)C(Cc2ccc(OC3OC(CO)C(OC4OC5COC(c6cccc(Oc7ccccc7)c6)OC5C(O)C4O)C(O)C3O)cc2)NC1=O (centres unmarked)
// result 4

---

# Tested on: Staphylococcus sp.
# run_description: in vitro antibacterial evaluation, MIC by broth dilution
# Type: cell-based
# assay_context: strain GC 1131; broth dilution, 18 hours at 35° C.
assay_metric: MIC Staphylococcus aureus (GC 1131)

The examples below pair each entry with its known result.
// query Query: MIC Staphylococcus aureus (GC 1131); subject: CC(c1ccccc1)C1NC(=O)CNC(=O)C(CO)NC(=O)C(C(O)C2CNC(=N)N2C2OC(CO)C(O)C(O)C2O)NC(=O)C(C(O)C2CNC(=N)N2)NC(=O)C(Cc2ccc(OC3OC(CO)C(OC4OC5COC(Cc6ccccc6)OC5C(O)C4O)C(O)C3O)cc2)NC1=O (stereo not shown)
// result 2 µg/mL

// query Try CC(c1ccccc1)C1NC(=O)CNC(=O)C(CO)NC(=O)C(C(O)C2CN(Cc3ccc(-c4ccccc4)cc3)C(=N)N2C2OC(CO)C(O)C(O)C2O)NC(=O)C(C(O)C2CNC(=N)N2)NC(=O)C(Cc2ccc(OC3OC(CO)C(OC4OC(CO)C(O)C(O)C4O)C(O)C3O)cc2)NC1=O (stereo not shown) [Example 66a] next.
// result >128 µg/mL

// query Try CC(C)C(=O)Nc1cc(CC2NC(=O)C(C(C)c3ccccc3)NC(=O)CNC(=O)C(CO)NC(=O)C(C(O)C3CNC(=N)N3C3OC(CO)C(O)C(O)C3O)NC(=O)C(C(O)C3CNC(=N)N3)NC2=O)ccc1O (stereo not shown) next.
// result >128 µg/mL

With those in mind, consider the next molecule.
// query Query: MIC Staphylococcus aureus (GC 1131); subject: CC(c1ccccc1)C1NC(=O)CNC(=O)C(CO)NC(=O)C(C(O)C2CN(Cc3ccccc3-c3ccccc3)C(=N)N2C2OC(CO)C(O)C(O)C2O)NC(=O)C(C(O)C2CNC(=N)N2)NC(=O)C(Cc2ccc(OC3OC(CO)C(OC4OC(CO)C(O)C(O)C4O)C(O)C3O)cc2)NC1=O (stereo not shown)
// result >128 µg/mL

---

# Test system: Staphylococcus sp.
# run_description: in vitro antibacterial evaluation, MIC by broth dilution
# Type: cell-based
# assay_context: broth dilution, 18 hours at 35° C.; strain GC 4544
assay_metric: MIC Staphylococcus aureus (GC 4544) (µg/mL)
Field: numeric (µg/mL). Do not append units.

// query Query: MIC Staphylococcus aureus (GC 4544); subject: CC(c1ccccc1)C1NC(=O)CNC(=O)C(CO)NC(=O)C(C(O)C2CNC(=N)N2C2OC(CO)C(O)C(O)C2O)NC(=O)C(C(O)C2CNC(=N)N2)NC(=O)C(Cc2ccc(OC3OC(CO)C(OC4OC5COC(c6ccc(Oc7ccc(C(C)(C)C)cc7)cc6)OC5C(O)C4O)C(O)C3O)cc2)NC1=O (centres unmarked) [Example 181]
// result 4

---

# Tested on: Enterococcus sp.
# run_description: in vitro antibacterial evaluation, MIC by broth dilution
# Assay type: cell-based
# assay_context: broth dilution, 18 hours at 35° C.
assay_metric: MIC Enterococcus faecalis (GC 6189) (µg/mL)
Field: numeric (µg/mL). Do not append units.

// query Query: MIC Enterococcus faecalis (GC 6189); subject: COc1ccc2cc(COCC3OC(OC4C(CO)OC(Oc5ccc(CC6NC(=O)C(C(C)c7ccccc7)NC(=O)CNC(=O)C(CO)NC(=O)C(C(O)C7CNC(=N)N7C7OC(CO)C(O)C(O)C7O)NC(=O)C(C(O)C7CNC(=N)N7)NC6=O)cc5)C(O)C4O)C(O)C(O)C3O)ccc2c1 (stereo not shown) [Example 230]
// result 4

New cases:
// query Query: MIC Enterococcus faecalis (GC 6189); subject: COc1ccc(COCC2OC(OC3C(CO)OC(Oc4ccc(CC5NC(=O)C(C(C)c6ccccc6)NC(=O)CNC(=O)C(CO)NC(=O)C(C(O)C6CNC(=N)N6C6OC(CO)C(O)C(O)C6O)NC(=O)C(C(O)C6CNC(=N)N6)NC5=O)cc4)C(O)C3O)C(O)C(O)C2O)cc1F (stereo not shown) [Example 237]
// result 16

---

# Tested on: Enterococcus sp.
# run_description: in vitro antibacterial evaluation, MIC by broth dilution
# Type: cell-based
# assay_context: Enterococcus faecalis (GC 4553); broth dilution, 18 hours at 35° C.
assay_metric: MIC Enterococcus faecalis (GC 4553) (µg/mL)
Field: numeric (µg/mL). Do not append units.

// query Query: MIC Enterococcus faecalis (GC 4553); subject: CC(c1ccccc1)C1NC(=O)CNC(=O)C(CO)NC(=O)C(C(O)C2CNC(=N)N2C2OC(CO)C(O)C(O)C2O)NC(=O)C(C(O)C2CNC(=N)N2)NC(=O)C(Cc2ccc(OC3OC(CO)C(OC4OC5COC(C6CC=CCC6)OC5C(O)C4O)C(O)C3O)cc2)NC1=O (stereo not shown)
// result 4

New cases:
// query Query: MIC Enterococcus faecalis (GC 4553); subject: CC(c1ccccc1)C1NC(=O)CNC(=O)C(CO)NC(=O)C(C(O)C2CN(Cc3ccc(C(C)(C)C)cc3)C(=N)N2C2OC(CO)C(O)C(O)C2O)NC(=O)C(C(O)C2CNC(=N)N2)NC(=O)C(Cc2ccc(OC3OC(CO)C(OC4OC(CO)C(O)C(O)C4O)C(O)C3O)cc2)NC1=O (stereo not shown)
// result 128

// query Try CCCCCC1OCC2OC(OC3C(CO)OC(Oc4ccc(CC5NC(=O)C(C(C)c6ccccc6)NC(=O)CNC(=O)C(CO)NC(=O)C(C(O)C6CNC(=N)N6C6OC(CO)C(O)C(O)C6O)NC(=O)C(C(O)C6CNC(=N)N6)NC5=O)cc4)C(O)C3O)C(O)C(O)C2O1 (stereo not shown) next.
// result 2

---

# Test system: Enterococcus sp.
# run_description: in vitro antibacterial evaluation, MIC by broth dilution
# Type: cell-based
# assay_context: Enterococcus faecium (GC 2243); broth dilution, 18 hours at 35° C.
# From the text: Methods for in vitro Antibacterial Evaluation (Table 1) […]
Numbered stars: 1 amine (or outer) side, 2 acyl side, 3 side chain; on linkers, the order of the positions; unused ones are H or OH. Square brackets hold non-standard residues; d marks the D form. Peptide text beside a SMILES is read from it. X5 = N=C1NCC(C(O)[C@@H](N[*:1])C(=O)[*:2])N1; X4 = N=C1NCC(C(O)[C@H](N[*:1])C(=O)[*:2])N1; Cha = N[C@@H](CC1CCCCC1)C(=O)O; dCha = N[C@H](CC1CCCCC1)C(=O)O
assay_metric: MIC Enterococcus faecium (GC 2243) (µg/mL)
Field: numeric (µg/mL). Do not append units.

// query Query: MIC Enterococcus faecium (GC 2243); subject: CC(c1ccccc1)C1NC(=O)CNC(=O)C(CO)NC(=O)C(C(O)C2CNC(=N)N2C2OC(CO)C(O)C(O)C2O)NC(=O)C(C(O)C2CNC(=N)N2)NC(=O)C(Cc2ccc(OC3OC(CO)C(OC4OC5COC(c6ccsc6)OC5C(O)C4O)C(O)C3O)cc2)NC1=O (stereo not shown) [Example 133]
// result 8

// query Try COC1CCC2(C)C(CCC3C2CCC2(C)C(C(C)CCC4OCC5OC(OC6C(CO)OC(Oc7ccc(CC8NC(=O)C(C(C)c9ccccc9)NC(=O)CNC(=O)C(CO)NC(=O)C(C(O)C9CNC(=N)N9C9OC(CO)C(O)C(O)C9O)NC(=O)C(C(O)C9CNC(=N)N9)NC8=O)cc7)C(O)C6O)C(O)C(O)C5O4)CCC32)C1 (stereo not shown) [Example 130] next.
// result 8

// query Try N=C1NCC(C(O)[C@@H]2NC(=O)[C@@H](CC3CCCCC3)NC(=O)[C@H](CC3CCCCC3)NC(=O)CNC(=O)[C@H](CO)NC(=O)[C@@H](C(O)C3CNC(=N)N3)NC2=O)N1 (stereo partly shown) [Example 58] (cyclo([Cha][dCha][X4][X5]SG)) next.
// result 32
